assay: Metabolic stability study in human microsome; format: in vitro ADME
observable: Human Hepatic Clearance (mL/min/kg)
Lab book: enter the figure in mL/min/kg, no units written.

In the examples that follow, each entry is paired with its recorded Human Hepatic Clearance.
>  <compound>
COC(=O)C1=C(CN2CC(F)(F)C[C@H]2C(=O)O)NC(c2ncc(F)cc2F)=N[C@H]1c1ccc(F)cc1Cl [Example 4]

>  <observable>
Human Hepatic Clearance

>  <number>
5.11

$$$$
>  <compound>
CCOC(=O)C1=C(CN2CC(F)(F)C[C@H]2C(=O)O)NC(c2nccn2C)=N[C@H]1c1ccc(F)cc1Cl [Example 36]

>  <observable>
Human Hepatic Clearance

>  <number>
6.22

$$$$
>  <compound>
CCOC(=O)C1=C(CN2CCO[C@H](C)[C@H]2C(=O)O)NC(c2nccs2)=N[C@H]1c1ccccc1Cl [Example 117]

>  <observable>
Human Hepatic Clearance

>  <number>
0

$$$$
>  <compound>
COC(=O)C1=C(CN2CC(F)(F)C[C@H]2C(=O)O)NC(c2nc(SC)cs2)=N[C@H]1c1ccc(F)cc1Cl [Example 62]

>  <observable>
Human Hepatic Clearance

>  <number>
9.06

$$$$
>  <compound>
COC(=O)C1=C(CN2CCOC[C@H]2C(=O)O)NC(c2nccs2)=N[C@H]1c1ccccc1Br [Example 71]

>  <observable>
Human Hepatic Clearance

>  <number>
2.81

$$$$

Please give the measured Human Hepatic Clearance for this compound: CCOC(=O)C1=C(CN2CCOC[C@H]2C(=O)O)NC(c2nccs2)=N[C@H]1c1ccc(Br)cc1 [Example 123]
3.14

Please give the measured Human Hepatic Clearance for this compound: CCOC(=O)C1=C(CN2CC(F)(F)C[C@H]2C(=O)O)NC(c2nccs2)=N[C@H]1c1cccc(F)c1F [Example 50]
0

Please give the measured Human Hepatic Clearance for this compound: CCOC(=O)C1=C(CN2CCO[C@H](C)[C@H]2C(=O)O)NC(c2nccs2)=N[C@H]1c1ccc(F)cc1Br [Example 116]
0

Please give the measured Human Hepatic Clearance for this compound: CCOC(=O)C1=C(CN2CCOC[C@H]2C(=O)O)NC(c2nccs2)=N[C@H]1c1cc(F)c(F)c(F)c1 [Example 43]
1.2

Please give the measured Human Hepatic Clearance for this compound: COC(=O)C1=C(CN2CCOC[C@H]2C(=O)O)NC(c2nc(C)cs2)=N[C@H]1c1ccc(F)cc1Cl [Example 17]
0.74

Please give the measured Human Hepatic Clearance for this compound: COC(=O)C1=C(CN2CCOC[C@H]2C(=O)O)NC(c2nccs2)=N[C@H]1c1ccc(Br)c(F)c1F [Example 45]
4.69

Please give the measured Human Hepatic Clearance for this compound: COC(=O)C1=C(CN2CCO[C@H](C(C)C)[C@H]2C(=O)O)NC(c2nccs2)=N[C@H]1c1ccc(F)cc1Cl [Example 120]
2.58

Please give the measured Human Hepatic Clearance for this compound: COC(=O)C1=C(CN2CCOC[C@H]2C(=O)O)NC(c2nccs2)=N[C@H]1c1ccc(Cl)c(F)c1 [Example 77]
1.43

Please give the measured Human Hepatic Clearance for this compound: COC(=O)C1=C(CN2CCOC[C@H]2C(=O)O)NC(c2nccs2)=N[C@H]1c1cccc(F)c1Cl [Example 47]
1.46

Please give the measured Human Hepatic Clearance for this compound: CCOC(=O)C1=C(CN2CCOC[C@H]2C(=O)O)NC(c2nccs2)=N[C@H]1c1ccc(F)c(F)c1Cl [Example 60]
4.8

* * *

test: Mouse SDPK (single dose PK in male ICR mouse, plasma and liver); assay type: in vivo; conditions: mouse; male ICR mice; plasma; 1 mg/kg IV, 3 mg/kg PO; read-out: F (bioavailability)
observable: bioavailability (%)
Lab book: enter the figure in %, no units written.

>  <compound string>
COC(=O)C1=C(CN2CC(F)(F)C[C@H]2C(=O)O)NC(c2nccs2)=N[C@H]1c1ccc(F)cc1Cl

>  <reading unit>
%

>  <number>
94

$$$$
>  <compound string>
COC(=O)C1=C(CN2CCOC[C@H]2C(=O)O)N=C(c2nccs2)N[C@H]1c1ccc(F)cc1Cl

>  <reading unit>
%

>  <number>
37

$$$$

Let's switch to this compound now.
Please give the measured bioavailability for this compound: COC(=O)C1=C(CN2CC(F)(F)C[C@H]2C(=O)O)NC(c2nc(C)cs2)=N[C@H]1c1ccc(F)cc1Cl
69

* * *

test: Cytotoxicity (CC50) in HepDE19 cells, CCK-8 cell viability; assay type: cell-based; conditions: human, HepDE19 cells; read-out: CC50
CC50 at 5 days values, listed per item
Lab book: enter the figure in µM, no units written.

In the examples that follow, each entry is paired with its recorded CC50 at 5 days.
>  <compound>
CCOC(=O)C1=C(CN2CCOC[C@H]2C(=O)O)NC(c2nccs2)=N[C@H]1c1ccc(Br)cc1 [Example 123]

>  <reading unit>
µM

>  <CC50 at 5 days>
56

$$$$
>  <compound>
CCOC(=O)C1=C(CN2CCOC[C@H]2C(=O)O)NC(c2nccn2C)=N[C@H]1c1ccc(F)c(F)c1 [Example 57]

>  <reading unit>
µM

>  <CC50 at 5 days>
35

$$$$
>  <compound>
CC(C)OC(=O)C1=C(CN2CCOC[C@H]2C(=O)O)NC(c2nccs2)=N[C@H]1c1cccc(F)c1Cl [Example 101]

>  <reading unit>
µM

>  <CC50 at 5 days>
91

$$$$
>  <compound>
COC(=O)C1=C(CN2CC(F)(F)C[C@H]2C(=O)O)NC(c2ncoc2C)=N[C@H]1c1ccc(F)cc1Cl [Example 102]

>  <reading unit>
µM

>  <CC50 at 5 days>
23

$$$$
>  <compound>
CCOC(=O)C1=C(CN2CCOC[C@H]2C(=O)O)NC(c2ncoc2C)=N[C@H]1c1ccc(F)cc1Br [Example 69]

>  <reading unit>
µM

>  <CC50 at 5 days>
57

$$$$
>  <compound>
COC(=O)C1=C(CN2CCOC[C@H]2C(=O)O)NC(c2nc(C3CC3)cs2)=N[C@H]1c1ccc(F)cc1Cl [Example 87]

>  <reading unit>
µM

>  <CC50 at 5 days>
100

$$$$

Let's switch to this compound now.
Please give the measured CC50 at 5 days for this compound: CCOC(=O)C1=C(CN2CC(F)(F)C[C@H]2C(=O)O)NC(c2nccs2)=N[C@H]1c1cccc(F)c1F [Example 50]
26

* * *

system: HBV; test: Anti-HBV activity in vitro in HepG2.2.15 cells (extracellular HBV DNA by qPCR); assay type: cell-based, Hepatitis B virus; conditions: Hepatitis B virus; HepG2.2.15 cells; in-house data; read-out: EC50
observable: log10 of EC50 (log10 of the value in nM)
All values: log10 EC50 [nM].

In the examples that follow, each entry is paired with its recorded log10 of EC50.
>  <compound>
COC(=O)C1=C(CN2CCOC[C@]2(C)C(=O)O)NC(c2nccs2)=N[C@H]1c1ccc(F)c(F)c1Cl (single isomer, unassigned) [Example 79]

>  <number>
0.65

$$$$
>  <compound>
CCOC(=O)C1=C(CN2CC(F)(F)C[C@H]2C(=O)O)NC(c2nccs2)=N[C@H]1c1ccc(C#N)cc1 [Example 48]

>  <number>
1.45

$$$$
>  <compound>
COC(=O)C1=C(CN2CCO[C@H](C)[C@H]2C(=O)O)NC(c2nccs2)=N[C@H]1c1ccc(F)c(F)c1F [Example 114]

>  <number>
0.97

$$$$
>  <compound>
CCOC(=O)C1=C(CN2CCO[C@H](C)[C@H]2C(=O)O)NC(c2nccs2)=N[C@H]1c1ccc(F)c(F)c1 [Example 112]

>  <number>
0.72

$$$$
>  <compound>
COC(=O)C1=C(CN2CC(F)(F)C[C@H]2C(=O)O)NC(c2nc(C(F)(F)F)cs2)=N[C@H]1c1ccc(F)cc1Cl [Example 25]

>  <number>
0.70

$$$$

What reported log10 of EC50 corresponds to [2H][C@@]1(c2ccc(F)cc2Cl)N=C(c2nccs2)NC(CN2CC(F)(F)C[C@H]2C(=O)O)=C1C(=O)OC [Example 3] on HBV?
0.04

What reported log10 of EC50 corresponds to COC(=O)C1=C(CN2CC(F)(F)C[C@H]2C(=O)O)NC(c2nc(C(C)C)cs2)=N[C@H]1c1ccc(F)cc1Cl [Example 28] on HBV?
0.64

What reported log10 of EC50 corresponds to CCOC(=O)C1=C(CN2CCOC[C@H]2C(=O)O)NC(c2nccs2)=N[C@H]1c1ccc(Cl)c(F)c1 [Example 83] on HBV?
0.18

What reported log10 of EC50 corresponds to CCOC(=O)C1=C(CN2CC(F)(F)C[C@H]2C(=O)O)NC(c2nccs2)=N[C@H]1c1ccc(F)c(F)c1 [Example 41] on HBV?
1.23

What reported log10 of EC50 corresponds to COC(=O)C1=C(CN2CCO[C@H](C)[C@H]2C(=O)O)NC(c2nccs2)=N[C@H]1c1ccc(F)c(F)c1 [Example 113] on HBV?
1.20

Source listed as patent US9447086B2.
